Each record here notes measured MIC S. pneumo. 1175.
- Tested on: Streptococcus pneumoniae 1175
- Assay type: cell-based
- conditionInfo: Streptococcus pneumoniae 1175; microtiter broth dilution

{"compound": "CCC1OC(=O)C(C)C(=O)C(C)C(OC2OC(C)CC(N(C)C)C2O)C(C)(OC)CC(C)C(=O)C(C)C2N(CC3CN(Cc4ccn(-c5cccnc5)n4)C3)C(=O)OC12C.O=CO (centres unmarked) [4.30]", "assaySystem": "Streptococcus pneumoniae 1175", "measurementName": "MIC S. pneumo. 1175", "recordedResult": "0.25 µg/mL"}
{"compound": "CCC1OC(=O)C(C)C(=O)C(C)C(OC2OC(C)CC(N(C)C)C2O)C(C)(OC)CC(C)C(=O)C(C)C2N(C3CN(S(=O)(=O)c4cccc(-c5ncco5)c4)C3)C(=O)OC12C (centres unmarked) [Example 3.65]", "assaySystem": "Streptococcus pneumoniae 1175", "measurementName": "MIC S. pneumo. 1175", "recordedResult": "<0.06 µg/mL"}

Problem: System Streptococcus pneumoniae 1175. Read-out MIC S. pneumo. 1175. Item CCC1OC(=O)C(C)C(=O)C(C)C(OC2OC(C)CC(N(C)C)C2O)C(C)(OC)CC(C)C(=O)C(C)C2N(C3CN(S(=O)(=O)c4ccc(OC)c5ncccc45)C3)C(=O)OC12C (centres unmarked) [Example 3.101] . Report value.
Result: <0.063 µg/mL

Problem: System Streptococcus pneumoniae 1175. Read-out MIC S. pneumo. 1175. Item CCC1OC(=O)C(C)C(=O)C(C)C(OC2OC(C)CC(N(C)C)C2O)C(C)(OC)CC(C)C(=O)C(C)C2N(C3CN(S(=O)(=O)c4ccc5c(cnn5C)c4)C3)C(=O)OC12C (centres unmarked) [Example 3.94] . Report value.
Result: <0.06 µg/mL

Problem: System Streptococcus pneumoniae 1175. Read-out MIC S. pneumo. 1175. Item CCC1OC(=O)C(C)C(=O)C(C)C(OC2OC(C)CC(N(C)C)C2O)C(C)(OC)CC(C)C(=O)C(C)C2N(C3CN(Cc4cccc5ccccc45)C3)C(=O)OC12C (centres unmarked) [Example 1.91] . Report value.
Result: <0.063 µg/mL

----------
- Test system: Streptococcus pneumoniae 1175
- Type: cell-based
- conditionInfo: S. pneumoniae 1175 (mefA); microtiter broth dilution
hey, just use rule met if measured MIC S. pneumo. 1175 is less than 0.8 µg/mL, otherwise rule not met

{"molecule": "CCC1OC(=O)C(C)C(=O)C(C)C(OC2OC(C)CC(N(C)C)C2O)C(C)(OC)CC(C)C(=O)C(C)C2N(CC3CCCN3C(=O)c3nc4cccnc4[nH]3)C(=O)OC12C (centres unmarked)", "labelValue": "rule met"}

Problem: Record CCC1OC(=O)C(C)C(=O)C(C)C(OC2OC(C)CC(N(C)C)C2O)C(C)(OC)CC(C)C(=O)C(C)C2N(CC3CCCN3Cc3cccnc3OC)C(=O)OC12C (centres unmarked) : is its MIC S. pneumo. 1175 strictly below 0.8 µg/mL?
Result: rule not met

Problem: Record CCC1OC(=O)C(C)C(=O)C(C)C(OC2OC(C)CC(N(C)C)C2O)C(C)(OC)CC(C)C(=O)C(C)C2N(CC3CCN(Cc4ccc(OC)nc4)C3)C(=O)OC12C (centres unmarked) : is its MIC S. pneumo. 1175 strictly below 0.8 µg/mL?
Result: rule met

Problem: Record CCC1OC(=O)C(C)C(=O)C(C)C(OC2OC(C)CC(N(C)C)C2O)C(C)(OC)CC(C)C(=O)C(C)C2N(CC3CCCN3C(=O)c3ccnc4ccccc34)C(=O)OC12C.O=CO (centres unmarked) : is its MIC S. pneumo. 1175 strictly below 0.8 µg/mL?
Result: rule not met
